assayProcedure: soluble on expression in E. coli; label from the status in PepcDB or PDB records

{"sequenceRecord": "MCSHYQALKDQERMRKYFAAHPSAEVPADMWPRYMGAFIRRPLEWDSGDEAVPEREAATGRWGMIPPGTRPEKLAEASKKNTSNARSETAHQLWTFRNAWAKAQHCIIPADAIYEPDWRSGKAVPTRFTRADGAPLGIAGLWDRYRNAAGEWIDSYTMLTINADDDPLFRDYHQAGKEKRMVVILPDGAYGDWLTAPATDTRDFLLPYPADRLVAAAVKLEHHHHHH", "soluble on expression in E. coli": "soluble"}
{"sequenceRecord": "MSLKITSIETIPIKVPIKPEFAIRSGRGGSHVVSPFLLVKVHTDAGITGLGEVSCTPRWSGEDQVSAAHFIKTYLAPLLEGEDPRQIESLTAKFRLGVAGNFFTKSGIEMALWDIAGKAAGKPVYELLGGTVREFIPTKWSVSGQEPDKAADIARWAVAQGFKAMKVKVGIEPDKDVARVAAVRAAIGSQIKLGVDANGGWSREVAASTIERLYASSIYFAEQPIPPEDLLYLPELRKQLKVPIIADESIYSLQDAMTLAHLQAADVFSIYVGKAGGIGPARKIAQFAESVGLKCTVGSNLELGIGSAAMIHLAIATHAIDAESYPCDIIGPMFYEDDMLVEPLPIVAGKAQPNSKPGLGVELNEKTVEKYRVCEGHHHHHH", "soluble on expression in E. coli": "soluble"}
{"sequenceRecord": "MNERLKEKLAVLPEQPGCYLMKDKHGTVIYVGKAKSLKERVRSYFTGTHDGKTQRLVEEIADFEYIVTSSNAEALILEMNLIKKHDPKYNVMLKDDKSY", "soluble on expression in E. coli": "soluble"}

---

assayProcedure: soluble on expression in E. coli; label from the status in PepcDB or PDB records
metricName: soluble on expression in E. coli

{"sequenceRecord": "MGSDKIHHHHHHMINAPKTCTCYNGCVGGPSRPAGHPRRRTDKPRWRWTFDSGRRTPSVRIRQLVRGTVPWESLEAVARELGARYDQDTVRVVFLDADNWLSTPCVVNDRWFVKVISEQNALVHAVFTGARNLGMFSSGTEGFFERFDGPVAMAEHERDATRDLRALGVNAPRPIEAFEVDGFGVLVLDYLPAFTPLDEVPAADVAAHAPAVFEALSTMHANGVAHGDLRAENVLVSDGDLYFIDATNVDTDAIADARAYDLACALAALEPLIDAQTVVRIARESYTVDEAAADVSTTMDALLRAQDFLGFVQLRPDHDFDTAALTGHIGMAATNAQRGL", "dataValue": "not soluble"}
{"sequenceRecord": "MKMISTIQKKETVMVAPIPAKRGRKPAVATAPATGQVQSLTRGLKLLEWIAESNGSVALTELAQQAGLPNSTTHRLLTTMQQQGFVRQVGELGHWAIGAHAFMVGSSFLQSRNLLAIVHPILRNLMEESGETVNMAVLDQSDHEAIIIDQVQCTHLMRMSAPIGGKLPMHASGAGKAFLAQLSEEQVTKLLHRKGLHAYTHATLVSPVHLKEDLAQTRKRGYSFDDEEHALGLRCLAACIFDEHREPFAAISISGPISRITDDRVTEFGAMVIKAAKEVTLAYGGMR", "dataValue": "soluble"}
{"sequenceRecord": "MNSQTTKDIPCFRSYLPDALRLRFEDKLTIRAIAQRLGLSHSTIHTLFQRFLASGIAWPLPDSVSFAQLDAILYANRKKELTEPQIREGSWRKERRTSYSREFKVRLAKQALQPGAVVARIAREHDINNNLLFKWKSQYEDGLLSDDDIQECMPVPVALTDTPEPTRPVTNPFWRNKHDERPEGAPGNVPRCELHLKSGVVKLFDPLTPELLRALIREMKGGIRLEHHHHHH", "dataValue": "not soluble"}
{"sequenceRecord": "MTTNAIDGSLWLTNAVQPERKTGNQILGKDDFLKILLAQLENQDPLNPMEDKDFIAQMASFSSLEQMMNIANLMQQWMQASSRDALLRYSEWIGKTVHWQDGETMMSAVVQSVMQKDGQVTLGLDNGTTIAADAVVKVEQKG", "dataValue": "not soluble"}
{"sequenceRecord": "MLYDLAKQRKTVRKFKEEKPSIEKLMYCLKVANEAPSGMNAQPWRFLVVKDEETKRQIRETCEKAEKDFYENVRGKLKEWLNENSFNWKKPFLEEAPYLLLVFSKKDAPYSRESVWLAIGYLLLALEEQGLGTVPYTPPNPNELTKIVNTPSDLRFEVILPVGYPDDPKPKYPREEMKVSFNHF", "dataValue": "not soluble"}
{"sequenceRecord": "MKYNATKAISIAPPTIPTVNPTINEVFSFELLELELEEEEDKLLSCESDCFAQYVDGHLSHVNEVITQYSPEAQTGHDAVESQTTHPSLPLVAEVEEVAVLDKDELAEALEELDIFCLIFRKRT", "dataValue": "soluble"}
{"sequenceRecord": "GRAPRNGEKVLVEFVSANPTGPLHVGHARQAALGDAICRLYDASGWDVTREFYYNDAGNQIDNLAISVQARGRGIAPDAPDYPTDGYKGDYIVEIARDFAARKSVQASDGQPVTATGDLDSLDDIRAFAVAYLRREQDLDLQAFGLAFDNYFLESSLYASGRVQETVDTLVAKGHTYEEGGALWLRTTELGTGDDKDRVMRKSEGGYTYFVPDVAYHKVKWERGFHHAVNIQGSDHHGTVARVRAGLQGLEAGIPKDFPAYVLHKMVKVMRGGEEVKISKRAGSYVTMRDLIDWVGRDAVRYFLIQRRADTEFVFDIDLALSKSDENPVYYIQYAHARICTMIGNSGA", "dataValue": "not soluble"}
{"sequenceRecord": "MSLSHLVVFDLDGTLTRQRGGFELLHTLYGTTPEAETLMNRFEAGEITFTEWCQGAVDMWRANDITRSDITRATRALKPKAGAVDLLAHLQQTDIRFGILSAGVANLAARFEPYEPAFVRGNWLQFEDRRVSAIDIGVGPNEKGELLRKIRSKQNPVSITYIGDSHTDTEAFIEADTAVLFDPDERVPETAIDAADTIIESADIAEVQNCIPTEGHHHHHH", "dataValue": "not soluble"}
{"sequenceRecord": "MGSDKIHHHHHHMAGKLFIVILTPVCNGNCLYCGGYDEGLMPPKIQYPLESLKKIADGNSVAFYGGEPLLEMEKMKEIMDSVKAEHFILQTNGLKLNRLEDEYIRRFSTILVSFDGRREVHDLYRGNYERVLENVLNVRRKGFEGELIARMVASQETDIYEDVMHILNLDCFTHVHWQIDAVWSSDGVWRDFERWVERYNAGVRKLVKFWASELRKGVLHGLVPFMGVATAIFKPFTHPPCSSGFESFAIATDGRILACPICPDLDWNEVGSLDEGIKRRLEILEPCLSCSYFRFCGGRCVFFNRERLWGDRGFRLVCSTVKNLVDSILACKHLILANKEKIMYPRFLNTTEIIP", "dataValue": "not soluble"}
{"sequenceRecord": "SNTLRDFFTNETYTTIENEQHVLTEYRLPGSIERRYYSEEATAPTTVRSVQHVLLPENEEASSDKDLSILSSSFIHKVYKLADKQEAKKKRYSADVNGEKVFFVIKKGLSVNGQSAMMLSYALDSYRDDLAYTLFKQ", "dataValue": "not soluble"}
{"sequenceRecord": "TLTSTLASMMDALETALQPLKKYGFPVESVVLAFSLTLRLLPLMLNTVNEVLDARKARGVAFSLTALGTPVMIRSINRARSIADALMARGAGD", "dataValue": "not soluble"}
{"sequenceRecord": "MAHHHHHHMFHRHSFYEKGSSAPRDGAGAGADGTQAHGGAAGGSCNNGGTSSSSTASSQQQREQDERLYGMGSATAQQRRQVRQQWEKSFFGRLHYEEGMHDRFSEALKSEDAEAFRQSIAGQSHADLFPHWPEEEEAPLSEFKRLRPSLQLHYIVNRLSSGERRIRYSVDFGGLLMMPQLNLGEMMVKEADTLLRELGWMNDEVAMRIEEVQALASKIKFDFDLD", "dataValue": "soluble"}
{"sequenceRecord": "HEEHLMVPKGVEVYEINGPYFFGIATKFEEIMSELGDRPKVRIVRMRKVPFIDSTGIHNLTNLCEMSKKENIQIVLSGVNEKVHQILEKSGFNELLGKENICPNINVALEKAK", "dataValue": "not soluble"}

The measurements presented in this section are drawn from the DeepSol protein solubility set.
